Read-out: Interleukin-1 alpha (IL1a), IL1A (gene 3552)
run.description: BSK_KF3CT_IL1a: BioMAP Diversity Plus: KF3CT Assay for Interleukin-1 alpha (IL1a) Biomarker Activity (AID 2283070)
study.conditions: primary human keratinocytes with fibroblasts; actives raise or lower the signal
Active and inactive are the calls of the source. Rule for the calls: active = hit-call score of the fitted dose curve at least 0.9, where 1 is the maximum; inactive = score below 0.9.
Answer with one of the outcomes y = active, n = inactive

Study these solved cases before continuing.
Cc1ccc(S(=O)(=O)C(I)I)cc1
y
NCC(F)(F)C(F)(F)C(F)(F)C(F)(F)C(F)(F)C(F)(F)F
n
O=C(O)C(F)(F)C(F)(F)C(F)(F)C(F)(F)C(F)(F)C(F)(F)C(F)F
n
O=C=Nc1cccc2c(N=C=O)cccc12
n
NC(=O)C(F)(F)C(F)(F)C(F)(F)C(F)(F)C(F)(F)C(F)(F)C(F)(F)F
n

Now turn to the next compound.
Outcome? O=C(O)CCC(F)(F)C(F)(F)C(F)(F)C(F)(F)C(F)(F)C(F)(F)C(F)(F)F
n

###

Read-out: Interleukin 17F (IL17F), IL17F (gene 112744)
run.description: BSK_BT_xIL17F: BioMAP Diversity Plus: BT Assay for Interleukin 17F (IL17F) Biomarker Activity (AID 2284243)
study.conditions: primary human B cells with PBMC
Active and inactive are the calls of the source. Rule for the calls: active = hit-call score of the fitted dose curve at least 0.9, where 1 is the maximum; inactive = score below 0.9.
Answer with one of the outcomes class 1 = active, class 0 = inactive

Study these solved cases before continuing.
O=C(c1ccccc1)c1ccc(O)cc1O
class 0
NCC(F)(F)C(F)(F)C(F)(F)C(F)(F)C(F)(F)C(F)(F)C(F)(F)C(F)(F)F
class 0
NC(O)(C(F)(F)F)C(F)(F)F
class 0
NC(=O)C(F)(F)C(F)(F)C(F)(F)C(F)(F)C(F)(F)C(F)(F)C(F)(F)F
class 0
COC(F)(C(F)F)C(F)(F)F (centres undefined)
class 0
NS(=O)(=O)C(F)(F)C(F)(F)C(F)(F)C(F)(F)C(F)(F)C(F)(F)F
class 0

Outcome? O=C(Cl)C(F)(F)C(F)(F)C(F)(F)C(F)(F)C(F)(F)C(F)(F)F
class 0

Outcome? OC(O)C(F)(F)C(F)(F)F
class 0

Outcome? FC(F)(F)C(F)(F)C(F)(F)CC1CO1 (centres undefined)
class 0

###

run.description: Tanguay_ZF_120hpf_ANY: Oregon State University Tanguay Lab 120 Hour Post-fertilization zebrafish Assay for Any Mortality and Malformation (AID 2284404)
Active and inactive are the calls of the source. Rule for the calls: active = hit-call score of the fitted dose curve at least 0.9, where 1 is the maximum; inactive = score below 0.9.
Answer with one of the outcomes active, inactive

Outcome? O=S(=O)(O)CCC(F)(F)C(F)(F)C(F)(F)C(F)(F)C(F)(F)C(F)(F)C(F)(F)C(F)(F)F
active

Outcome? FC(F)(F)C(F)(F)C(F)(F)C(F)(F)C(F)(F)C(F)(F)CC[Si](Cl)(Cl)Cl
inactive

Outcome? FC(F)(F)C(F)(F)C(F)(F)C(F)(F)C(F)(F)C(F)(F)C(F)(F)CCI
inactive

###

Read-out: Matrix Metallopeptidase 1 (MMP1), MMP1 (gene 4312)
run.description: BSK_BE3C_MMP1: BioMAP Diversity Plus: BE3C Assay for Matrix Metallopeptidase 1 (MMP1) Biomarker Activity (AID 2283024)
study.conditions: primary human bronchial epithelial cells; actives raise or lower the signal
The source made the active and inactive calls. Rule for the calls: active = hit-call score of the fitted dose curve at least 0.9, where 1 is the maximum; inactive = score below 0.9.
Answer with one of the outcomes true (active), false (inactive)

Study these solved cases before continuing.
C[C@]12CC[C@H]3C(=CCc4cc(O)ccc43)[C@@H]1CCC2=O
false
Cc1cc(C)c(O)c(C(C)(C)C)c1
true
CC(C)CCCC(C)CCO (stereo not given)
false
O=C=NCc1cccc(CN=C=O)c1
false
O=C(O)CCC(F)(F)C(F)(F)C(F)(F)F
false
OCC(F)(F)C(F)(F)C(F)(F)C(F)(F)C(F)(F)C(F)(F)CO
false

Outcome? OC(O)C(F)(F)C(F)(F)F
false

Outcome? O=C1c2c(O)ccc(Nc3ccc(CCO)cc3)c2C(=O)c2c([N+](=O)[O-])ccc(O)c21
true

Outcome? COC(F)(C(F)F)C(F)(F)F (stereo not given)
false

Outcome? Cc1ccc(S(=O)(=O)C(I)I)cc1
true

Outcome? O=C(c1ccccc1)c1ccc(O)cc1O
false

###

run.description: Tanguay_ZF_120hpf_MORT: Oregon State University Tanguay Lab 120 Hour Post-fertilization zebrafish Assay for Mortality (AID 2284399)
Active and inactive are the calls of the source. The calls were made as follows: active = hit-call score of the fitted dose curve at least 0.9, where 1 is the maximum; inactive = score below 0.9.
Answer with one of the outcomes class 1 for active, class 0 for inactive

Study these solved cases before continuing.
OC(O)C(F)(F)C(F)(F)F
class 0
OCC(F)(F)C(F)(F)C(F)(F)C(F)(F)C(F)(F)C(F)(F)C(F)(F)C(F)(F)CO
class 1
O=C(O)CCC(F)(F)C(F)(F)C(F)(F)F
class 0
C=CC(=O)OCC(F)(F)C(F)(F)C(F)(F)COC(=O)C=C
class 1
CN(C(=O)C(F)(F)C(F)(F)C(F)(F)F)[Si](C)(C)C
class 0

Outcome? O=C(O)CCC(F)(F)C(F)(F)C(F)(F)C(F)(F)C(F)(F)C(F)(F)C(F)(F)F
class 0

###

run.description: ATG_DR4_LXR_CIS: Attagene CIS-FACTORIAL HepG2 Assay for human Liver X Receptor (LXR), DR4 submotif (AID 2282929)
study.conditions: HepG2 Attagene DR4 cis-reporter, mRNA transcription; actives raise or lower the signal
Active and inactive are the calls of the source. The calls were made as follows: active = hit-call score of the fitted dose curve at least 0.9, where 1 is the maximum; inactive = score below 0.9.
readout.type: AC50

Field: example entries. Status: answers known.
CC(C)(C)c1cc(CCC(=O)OCC(COC(=O)CCc2cc(C(C)(C)C)c(O)c(C(C)(C)C)c2)(COC(=O)CCc2cc(C(C)(C)C)c(O)c(C(C)(C)C)c2)COC(=O)CCc2cc(C(C)(C)C)c(O)c(C(C)(C)C)c2)cc(C(C)(C)C)c1O
inactive
Nc1cc([N+](=O)[O-])cc(Cl)c1O
inactive
CN1CN(C)CN(C)C1
135 µM (active)
CC1CCCCC1
inactive
O=S(=O)(O)c1ccc(Cl)cc1
inactive
C=CC(=O)OCC(F)(F)C(F)(F)C(F)(F)COC(=O)C=C
31.7 µM (active)
NS(=O)(=O)C(F)(F)C(F)(F)C(F)(F)C(F)(F)C(F)(F)C(F)(F)F
inactive
O=C(Cl)C(F)(F)C(F)(F)C(F)(F)C(F)(F)C(F)(F)C(F)(F)F
inactive

Please go through the list and note AC50 for each compound.
1. OCC(O)CC(F)(F)C(F)(F)C(F)(F)C(F)(F)C(F)(F)C(F)(F)C(F)(F)C(F)(F)F (stereo unspecified)
2. CCCC(=O)OCC(COC(=O)CCC)OC(=O)CCC
3. CC(C)CC=C(C=O)c1ccccc1
4. CCOC(=O)CC(=O)C(F)(F)C(F)(F)F
5. NCC(F)(F)C(F)(F)C(F)(F)C(F)(F)C(F)(F)C(F)(F)C(F)(F)C(F)(F)F
6. CCn1c2ccccc2c2ccccc21
7. CC(C)=CCCC(C)O (stereo unspecified)
8. COc1ccccc1C=O

1: inactive; 2: inactive; 3: 84.9 µM (active); 4: inactive; 5: inactive; 6: inactive; 7: inactive; 8: inactive

Please go through the list and note AC50 for each compound.
1. OC(O)C(F)(F)C(F)(F)F
2. C=CC(=O)OCC(F)(F)C(F)(F)C(F)(F)C(F)(F)C(F)(F)C(F)(F)C(F)(F)C(F)F
3. O=S(=O)(O)CCC(F)(F)C(F)(F)C(F)(F)C(F)(F)C(F)(F)C(F)(F)C(F)(F)C(F)(F)F
4. C=C(C)C(=O)OCC(F)(F)C(F)(F)C(F)(F)C(F)F
5. CCOCOCC
6. Cc1cc(C)c(O)c(C(C)(C)C)c1
7. O=C(O)C(F)(F)OC(F)(F)C(F)(F)OC(F)(F)C(F)(F)OC(F)(F)F
8. CCOC(C=C(C)CCC=C(C)C)OCC

["150 µM (active)", "232 µM (active)", "inactive", "inactive", "inactive", "inactive", "inactive", "inactive"]

###

run.description: ATG_EGR_CIS: Attagene CIS-FACTORIAL HepG2 Assay for human Early Growth Response 1 (EGR1) (AID 2282938)
study.conditions: HepG2 Attagene CIS-FACTORIAL EGR reporter mRNA; actives raise or lower the signal
Experimental: ATG_CIS is a cell-based, multiplexed-readout assay that uses HepG2, a human liver cell line, with measurements taken at 24 hours after chemical dosing in a 24-well plate.ATG_EGR_CIS is one of 52 assay component(s) measured or calculated from the ATG_CIS assay. […] This assay endpoint, ATG_EGR_CIS, was analyzed with bidirectional fitting relative to DMSO as the negative control and baseline of activity. […]
Activity calls are given as the source filed them. The calls were made as follows: active = hit-call score of the fitted dose curve at least 0.9, where 1 is the maximum; inactive = score below 0.9.
Answer with one of the outcomes Yes = active, No = inactive

Study these solved cases before continuing.
CCCCOC(=O)[C@H](C)O
No
C=CC(=O)OCC(F)(F)C(F)(F)C(F)(F)C(F)(F)C(F)(F)C(F)(F)C(F)(F)C(F)F
No

Outcome? CC(C)CC=C(C=O)c1ccccc1
No

Outcome? CCOC(=O)CC(=O)C(F)(F)C(F)(F)F
No

Outcome? Nc1c(Br)cc([N+](=O)[O-])cc1Br
No

Outcome? CCN(CC)c1ccc(N=Nc2ccccc2)cc1
Yes
